Data provenance: paper PMC4336329

Would you mind telling me the reported hERG current change (%, negative = inhibition) at 10uM of each entry?
# testSystem: human ether-à-go-go-related gene (hERG) potassium channel (human, UniProt Q12809);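 note: peak tail current of the secondary pulse compared with the same well before compound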
# Sequence (Q12809 whole entry, looked up): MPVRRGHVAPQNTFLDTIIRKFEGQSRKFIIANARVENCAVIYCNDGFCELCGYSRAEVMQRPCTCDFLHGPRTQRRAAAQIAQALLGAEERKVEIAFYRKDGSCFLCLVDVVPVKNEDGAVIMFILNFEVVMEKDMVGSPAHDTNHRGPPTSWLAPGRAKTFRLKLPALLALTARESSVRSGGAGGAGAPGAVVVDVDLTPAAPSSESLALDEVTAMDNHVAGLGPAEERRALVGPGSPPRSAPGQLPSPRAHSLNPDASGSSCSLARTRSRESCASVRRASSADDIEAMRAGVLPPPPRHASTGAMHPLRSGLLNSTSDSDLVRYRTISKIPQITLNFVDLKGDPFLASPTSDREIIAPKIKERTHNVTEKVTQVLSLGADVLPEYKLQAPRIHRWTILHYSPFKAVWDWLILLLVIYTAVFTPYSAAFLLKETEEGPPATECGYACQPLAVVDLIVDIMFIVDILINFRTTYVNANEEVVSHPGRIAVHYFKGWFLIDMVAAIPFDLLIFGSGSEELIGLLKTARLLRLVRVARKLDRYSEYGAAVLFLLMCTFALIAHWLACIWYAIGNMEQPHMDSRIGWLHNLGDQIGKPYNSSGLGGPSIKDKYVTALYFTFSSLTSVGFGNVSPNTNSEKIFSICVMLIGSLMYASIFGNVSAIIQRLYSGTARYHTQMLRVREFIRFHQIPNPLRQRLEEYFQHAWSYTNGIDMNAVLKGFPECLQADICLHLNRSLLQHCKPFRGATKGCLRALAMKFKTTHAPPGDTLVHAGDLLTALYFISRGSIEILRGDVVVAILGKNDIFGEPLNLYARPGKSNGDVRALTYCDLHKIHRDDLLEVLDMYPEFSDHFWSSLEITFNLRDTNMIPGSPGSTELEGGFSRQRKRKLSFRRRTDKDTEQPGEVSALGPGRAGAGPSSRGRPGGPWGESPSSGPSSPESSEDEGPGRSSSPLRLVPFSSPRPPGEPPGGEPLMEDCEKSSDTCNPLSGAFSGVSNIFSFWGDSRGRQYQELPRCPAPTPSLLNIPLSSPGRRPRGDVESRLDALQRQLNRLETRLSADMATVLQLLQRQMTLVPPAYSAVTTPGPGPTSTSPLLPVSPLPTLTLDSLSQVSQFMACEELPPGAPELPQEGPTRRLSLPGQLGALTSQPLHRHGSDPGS
# assayOverview: primary screen, population patch clamp on CHO cells stably expressing hERG; higher = less effect of the substance
The campaign covered roughly 310,000 compounds. About 14,000 (4.5%) showed an effect of 50% or more. Effects have a minus sign here. For the sample, strong results were picked, then their nearest neighbours and some compounds at random.
Give bare numbers, in %.

compound	unitName	numericReadout
C[C@H](C(=O)NCc1ccccc1)C(=O)c1ccccc1	%	18
COc1ccc(-c2nn(-c3ccccc3)cc2CNCCN2CCOC2=O)c(F)c1	%	-11.9

Items follow; give hERG current change (%, negative = inhibition) at 10uM for each.
1. O=C(Nc1cccc(C(=O)N2CCCC2)c1)c1ccccc1
2. CC(C)Cc1nnc(NC(=O)CCC(=O)NC2CCCCCC2)s1
3. CC(Nc1ncnc2sccc12)c1ccccc1 (centres unmarked)

Response:
1. 2.2
2. -48.6
3. -29.8

Please give hERG current change (%, negative = inhibition) at 10uM, item by item, for the list that follows.
1. CSCCC(NC(=O)c1ccccc1Cl)C(=O)N1CCCCCCC1 (centres unmarked)
2. COc1ccc(-n2cc(CNCC3CC(=O)N(C4CC4)C3)c(-c3ccccc3Cl)n2)cc1 (centres unmarked)
3. O=C(c1cccc(C(=O)N2CCN(c3ccccc3)CC2)c1)N1CCN(c2ccccc2)CC1
4. O=C(CCN1C(=O)C2C3CCC(C3)C2C1=O)OCC(=O)c1ccccc1 (centres unmarked)
5. O=C(Nc1cccc(C(=O)N2CCN(c3cccc(Cl)c3)CC2)c1)c1ccccc1
6. O=C(c1ccc(N2CCN(C(=O)c3cccc(F)c3)CC2)cc1)c1cccc(F)c1

Response:
-6.4
-13.4
-41.7
9.98
4.69
-12.5

Each of the following entries comes with a recorded value; kindly state hERG current change (%, negative = inhibition) at 10uM for each.
1. CCCNC(=O)NC(=O)COC(=O)c1cccc(NS(=O)(=O)c2ccc(F)c(F)c2)c1
2. Cc1nn(-c2ccccc2)c(C)c1/C=C/C(=O)OCC(=O)Nc1ccc(S(N)(=O)=O)cc1
3. Cc1cccc(Nc2ncnc(N)n2)c1
4. COc1ccc(NC(=O)NCc2ccc3c(c2)OCO3)c(OC)c1
5. CN1CCN(C(=O)c2ccccc2NC(=O)CCN2C(=O)c3ccccc3C2=O)CC1
6. CCN(CC)CCNC(=O)c1ccc(NC(=O)c2cn(-c3ccccc3)nc2-c2cccs2)cc1
7. O=C(c1cccc(C(=O)N2CCN(c3ccc(F)cc3)CC2)c1)N1CCN(c2ccc(F)cc2)CC1

Response:
1. -12
2. 13.1
3. 15.6
4. 11.5
5. -3.71
6. -32.7
7. -72.5

Dear colleague, could you please provide hERG current change (%, negative = inhibition) at 10uM for the compounds listed below?
1. O=C(Nc1cccc(C(=O)N2CCN(c3ccc(F)cc3)CC2)c1)c1ccccc1
2. CCN(CC)CCNC(=O)c1cn(-c2ccccc2)nc1-c1cccs1.Cl

Response:
-58.7
-69

----------
Field: hERG current change (%, negative = inhibition) at 10uM. Provide a value for each of the compounds that follow.
# testSystem: human ether-à-go-go-related gene (hERG) potassium channel (human, UniProt Q12809);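 note: peak tail current of the secondary pulse compared with the same well before compound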
# assayOverview: primary screen, population patch clamp on CHO cells stably expressing hERG; higher = less effect of the substance
Out of some 310,000 compounds screened, about 14,000 (4.5%) showed an effect of 50% or more. Effects have a minus sign here. The entries come from a sample that favours strong results as a whole.
One number for each entry, in %.

compound	testSystem	numericReadout
CC(Oc1ncnc2ccccc12)C(=O)Nc1cccc(S(=O)(=O)N2CCOCC2)c1 (centres unmarked)	human ether-à-go-go-related gene (hERG) potassium channel (human, UniProt Q12809)	-11.3
O=C(CSc1ccc(Cl)cc1)Nc1ccc(N2CCN(c3ccccc3)CC2)c(F)c1	human ether-à-go-go-related gene (hERG) potassium channel (human, UniProt Q12809)	24.9
COc1cccc(CN2CCC(N(CCc3ccccc3)Cc3ccccc3)CC2)c1OC.O=C(O)C(=O)O	human ether-à-go-go-related gene (hERG) potassium channel (human, UniProt Q12809)	-60.3
COc1ccc(CN2CCC(N(CCc3ccccc3)Cc3ccccc3)CC2)c(OC)c1.O=C(O)C(=O)O	human ether-à-go-go-related gene (hERG) potassium channel (human, UniProt Q12809)	-74.5
COc1ccc(CCN(C)C(=O)C2CCN(Cc3cccc(OC)c3OC)CC2)cc1OC.O=C(O)C(=O)O	human ether-à-go-go-related gene (hERG) potassium channel (human, UniProt Q12809)	-3.13
COCCOC(=O)c1c(N)n(Cc2ccco2)c2nc3ccccc3nc12	human ether-à-go-go-related gene (hERG) potassium channel (human, UniProt Q12809)	-56.7
COc1ccc(CN2CCC(C(=O)N(C)CCc3ccc(OC)c(OC)c3)CC2)c(OC)c1.O=C(O)C(=O)O	human ether-à-go-go-related gene (hERG) potassium channel (human, UniProt Q12809)	-44.9

The reported hERG current change (%, negative = inhibition) at 10uM of the compound `O=C(Nc1ccc(C(F)(F)F)cc1)C1(c2ccccc2)CC1` was -15.2
